- assaySystem: AR protein (Homo sapiens, UniProt P10275)
- Construct: endogenous in cells; host or cells: VCaP
- measurementNotes: Western blotting analysis of AR protein levels in VCaP cells, band quantification, DC50/DC90
- Type: cell-based
- conditionSummary: VCaP cells, Table 6; read-out: VCaP DC50
I'd be grateful if you could share measured DC50 for these entries.

Query for AR protein (Homo sapiens, UniProt P10275): what DC50 does the record show for C[C@H]1CC2(CCN(c3ccc(C(=O)N4CCN(C5CN(c6cc7c(cc6F)C(=O)N(C6CCC(=O)NC6=O)C7=O)C5)CC4)cn3)CC2)CN1c1ccc(C#N)c(Cl)c1 (stereo partly drawn) [Cpd. No. 507] ?
10 to 100 nM

Query for AR protein (Homo sapiens, UniProt P10275): what DC50 does the record show for C[C@H]1CC2(CCN(c3ccc(C(=O)N4CCN(CC5CN(c6cc7c(cc6F)C(=O)N(C6CCC(=O)NC6=O)C7=O)C5)CC4)nn3)CC2)CN1c1ccc(C#N)c(Cl)c1 (stereo partly drawn) [Cpd. No. 503] ?
1 to 10 nM

Query for AR protein (Homo sapiens, UniProt P10275): what DC50 does the record show for C[C@H]1CC2(CCN(c3ncc(C(=O)N4CCN(C5CN(c6cc7c(cc6F)C(=O)N(C6CCC(=O)NC6=O)C7=O)C5)CC4)cn3)CC2)CN1c1ccc(C#N)c(Cl)c1 (stereo partly drawn) ?
< 1 nM

* * *

- measurementNotes: Mouse PK studies after oral and IV dosing
- Type: in vivo
- conditionSummary: in vivo, iv, 2 mg/kg, IV, dose 2 mg/kg, read-out: IV VSS
valueType: Vd (L/kg)
Please give a number only; it is taken to be in L/kg.

Which value of Vd has been reported for C[C@H]1CC2(CCN(c3ccc(C(=O)N4CCC(N5Cc6cc7c(cc6C5)C(=O)N(C5CCC(=O)NC5=O)C7=O)CC4)cc3)CC2)CN1c1ccc(C#N)c(Cl)c1 (stereo partly shown) [Cpd. No. 307] in the records?
0.23

* * *

- assaySystem: AR protein (Homo sapiens, UniProt P10275)
- Construct: endogenous in cells; host or cells: VCaP
- measurementNotes: Western blotting analysis of AR protein levels in VCaP cells, band quantification, DC50/DC90
- Type: cell-based
- conditionSummary: VCaP cells, Table 6; read-out: VCaP DC50
I'd be grateful if you could share measured DC50 for these entries.

Which value of DC50 has been reported for C[C@H]1CC2(CCN(c3ccc(C(=O)N4CC(N5CCN(c6cc7c(cc6F)C(=O)N(C6CCC(=O)NC6=O)C7=O)CC5)C4)cn3)CC2)CN1c1ccc(C#N)c(Cl)c1 (stereo partly drawn) in the records?
0.001 to 0.01 µM

Which value of DC50 has been reported for C[C@H]1CC2(CCN(c3ccc(C(=O)N4CCN(C5CCN(c6ccc7c(c6)C(=O)N(C6CCC(=O)NC6=O)C7=O)CC5)CC4)cc3F)CC2)CN1c1ccc(C#N)c(Cl)c1 (stereo partly drawn) [Cpd. No. 518] in the records?
0.01 to 0.1 µM

Which value of DC50 has been reported for C[C@H]1CC2(CCN(c3ccc(C(=O)N4CC(N5CCN(c6cc7c(cc6F)C(=O)N(C6CCC(=O)NC6=O)C7=O)CC5)C4)nc3)CC2)CN1c1ccc(C#N)c(Cl)c1 (stereo partly drawn) in the records?
0.001 to 0.01 µM

* * *

- assaySystem: AR protein (Homo sapiens)
- Construct: endogenous in cells; host or cells: VCaP
- Sequence (P10275 1-920): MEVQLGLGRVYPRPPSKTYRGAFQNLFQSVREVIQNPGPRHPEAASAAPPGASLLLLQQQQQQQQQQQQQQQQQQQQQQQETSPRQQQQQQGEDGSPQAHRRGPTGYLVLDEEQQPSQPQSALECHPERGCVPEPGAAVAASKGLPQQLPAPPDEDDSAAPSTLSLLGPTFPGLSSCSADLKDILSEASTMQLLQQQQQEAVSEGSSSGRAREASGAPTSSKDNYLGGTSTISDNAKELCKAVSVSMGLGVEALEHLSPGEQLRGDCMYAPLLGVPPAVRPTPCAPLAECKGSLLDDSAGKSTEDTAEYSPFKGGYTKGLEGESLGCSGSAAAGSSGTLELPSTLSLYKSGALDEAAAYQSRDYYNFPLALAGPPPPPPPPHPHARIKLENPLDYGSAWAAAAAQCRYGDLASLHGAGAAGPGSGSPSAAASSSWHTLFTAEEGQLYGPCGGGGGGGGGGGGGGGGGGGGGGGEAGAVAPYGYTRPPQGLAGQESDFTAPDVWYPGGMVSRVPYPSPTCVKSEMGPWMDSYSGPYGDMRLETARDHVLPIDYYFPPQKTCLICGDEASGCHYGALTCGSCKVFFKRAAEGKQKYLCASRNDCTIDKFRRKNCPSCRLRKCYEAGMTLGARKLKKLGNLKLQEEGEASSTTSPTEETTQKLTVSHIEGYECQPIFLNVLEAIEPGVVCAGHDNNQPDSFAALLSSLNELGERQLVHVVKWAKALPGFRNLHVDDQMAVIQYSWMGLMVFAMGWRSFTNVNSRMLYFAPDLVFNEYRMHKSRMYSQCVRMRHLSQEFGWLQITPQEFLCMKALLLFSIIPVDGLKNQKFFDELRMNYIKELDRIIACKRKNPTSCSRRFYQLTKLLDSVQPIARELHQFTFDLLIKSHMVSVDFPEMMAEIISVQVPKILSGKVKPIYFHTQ
- measurementNotes: Western blotting analysis of AR protein levels in VCaP cells, band quantification, DC50/DC90
- Type: cell-based
- conditionSummary: VCaP cells, Table 6; read-out: VCaP DC50
I'd be grateful if you could share measured DC50 for these entries.

Which value of DC50 has been reported for C[C@H]1CC2(CCN(c3ncc(C(=O)N4CCN(C5CN(c6ccc7c(c6)C(=O)N(C6CCC(=O)NC6=O)C7=O)C5)CC4)cn3)CC2)CN1c1ccc(C#N)c(Cl)c1 (some centres unmarked) in the records?
< 1 nM

Which value of DC50 has been reported for C[C@H]1CC2(CCN(c3ccc(C(=O)N4CCN(CC5CN(c6cc7c(cc6F)C(=O)N(C6CCC(=O)NC6=O)C7=O)C5)CC4)c(F)c3)CC2)CN1c1ccc(C#N)c(Cl)c1 (some centres unmarked) in the records?
1 to 10 nM

Which value of DC50 has been reported for C[C@H]1CC2(CCN(c3ccc(C(=O)N4CCN(C5CN(c6cc7c(cc6F)C(=O)N(C6CCC(=O)NC6=O)C7=O)C5)CC4)c(F)c3)CC2)CN1c1ccc(C#N)c(Cl)c1 (some centres unmarked) in the records?
< 1 nM

Which value of DC50 has been reported for C[C@H]1CC2(CCN(c3ccc(C(=O)N4CCN(CC5CN(c6ccc7c(c6)C(=O)N(C6CCC(=O)NC6=O)C7=O)C5)CC4)nn3)CC2)CN1c1ccc(C#N)c(Cl)c1 (some centres unmarked) in the records?
1 to 10 nM

Which value of DC50 has been reported for C[C@H]1CC2(CCN(c3cnc(C(=O)N4CCN(CC5CCN(c6ccc7c(c6)C(=O)N(C6CCC(=O)NC6=O)C7=O)CC5)CC4)cn3)CC2)CN1c1ccc(C#N)c(Cl)c1 (some centres unmarked) in the records?
1 to 10 nM

* * *

- measurementNotes: Mouse PK studies after oral and IV dosing
- Format: in vivo
- conditionSummary: in vivo, po, 5 mg/kg, PO, dose 5 mg/kg, read-out: PO T1/2 (converted)
valueType: half-life (h)
Please give a number only; it is taken to be in h.

Which value of half-life has been reported for C[C@H]1CC2(CCN(c3ccc(C(=O)N4CCC(N5Cc6cc7c(cc6C5)C(=O)N(C5CCC(=O)NC5=O)C7=O)CC4)cc3)CC2)CN1c1ccc(C#N)c(Cl)c1 (stereo partly shown) in the records?
4.4

* * *

- measurementNotes: Mouse PK studies after oral and IV dosing
- Format: in vivo
- conditionSummary: in vivo, po, 3 mg/kg, PO, dose 3 mg/kg, read-out: PO T1/2 (converted)
- Experimental: The pharmacokinetics of representative Compounds of the Disclosure were determined after oral and IV dosing at the concentrations indicated in mouse (Table 7). […] The vehicles used in these studies are either (i) 10% PEG400+90% PBS (adjusted to pH to 8.0 by 0.5 N NaOH); or (ii) 100% PEG200.
valueType: half-life (h)
Please give a number only; it is taken to be in h.

Which value of half-life has been reported for C[C@H]1CC2(CCN(c3ccc(C(=O)N4CCN(CC5CCN(c6ccc7c(c6)C(=O)N(C6CCC(=O)NC6=O)C7=O)CC5)CC4)nn3)CC2)CN1c1ccc(C#N)c(Cl)c1 (some centres unmarked) in the records?
5.7

Which value of half-life has been reported for C[C@H]1CC2(CCN(c3ccc(C(=O)N4CCN(C5CCN(c6cc7c(cc6F)C(=O)N(C6CCC(=O)NC6=O)C7=O)CC5)CC4)cc3)CC2)CN1c1ccc(C#N)c(Cl)c1 (some centres unmarked) in the records?
7.8

Which value of half-life has been reported for C[C@H]1CC2(CCN(c3ccc(C(=O)N4CCN(CC5CN(c6ccc7c(c6)C(=O)N(C6CCC(=O)NC6=O)C7=O)C5)CC4)nn3)CC2)CN1c1ccc(C#N)c(Cl)c1 (some centres unmarked) in the records?
4.5

Which value of half-life has been reported for C[C@H]1CC2(CCN(c3ccc(C(=O)N4CCC(N5CCN(c6ccc7c(c6)C(=O)N(C6CCC(=O)NC6=O)C7=O)CC5)CC4)nn3)CC2)CN1c1ccc(C#N)c(Cl)c1 (some centres unmarked) in the records?
2

Which value of half-life has been reported for C[C@H]1CC2(CCN(c3ccc(C(=O)N4CCC(N5CCN(c6cc7c(cc6F)C(=O)N(C6CCC(=O)NC6=O)C7=O)CC5)CC4)nn3)CC2)CN1c1ccc(C#N)c(Cl)c1 (some centres unmarked) in the records?
2

Which value of half-life has been reported for C[C@H]1CC2(CCN(c3ccc(C(=O)N4CCN(C5CCN(c6ccc7c(c6)C(=O)N(C6CCC(=O)NC6=O)C7=O)CC5)CC4)cc3)CC2)CN1c1ccc(C#N)c(Cl)c1 (some centres unmarked) in the records?
7.3

Which value of half-life has been reported for C[C@H]1CC2(CCN(c3ccc(C(=O)N4CCC(CN5CCN(c6ccc7c(c6)C(=O)N(C6CCC(=O)NC6=O)C7=O)CC5)CC4)cc3)CC2)CN1c1ccc(C#N)c(Cl)c1 (some centres unmarked) in the records?
5.37

Which value of half-life has been reported for C[C@H]1CC2(CCN(c3ccc(C(=O)N4CCN(C5CN(c6ccc7c(c6)C(=O)N(C6CCC(=O)NC6=O)C7=O)C5)CC4)cc3F)CC2)CN1c1ccc(C#N)c(Cl)c1 (some centres unmarked) in the records?
7.2

Which value of half-life has been reported for C[C@H]1CC2(CCN(c3ccc(C(=O)N4CCC(N5CCN(c6ccc7c(c6)C(=O)N(C6CCC(=O)NC6=O)C7=O)CC5)CC4)cc3F)CC2)CN1c1ccc(C#N)c(Cl)c1 (some centres unmarked) in the records?
6.4

Which value of half-life has been reported for C[C@H]1CC2(CCN(c3cnc(C(=O)N4CCC(N5CCN(c6ccc7c(c6)C(=O)N(C6CCC(=O)NC6=O)C7=O)CC5)CC4)cn3)CC2)CN1c1ccc(C#N)c(Cl)c1 (some centres unmarked) in the records?
2

Which value of half-life has been reported for C[C@H]1CC2(CCN(c3ccc(C(=O)N4CCC(CN5CCN(c6cc7c(cc6F)C(=O)N(C6CCC(=O)NC6=O)C7=O)CC5)CC4)cc3)CC2)CN1c1ccc(C#N)c(Cl)c1 (some centres unmarked) in the records?
6.9

Which value of half-life has been reported for C[C@H]1CC2(CCN(c3ccc(C(=O)N4CCN(C5CN(c6ccc7c(c6)CN(C6CCC(=O)NC6=O)C7=O)C5)CC4)cc3)CC2)CN1c1ccc(C#N)c(Cl)c1 (some centres unmarked) in the records?
7.2

Which value of half-life has been reported for C[C@H]1CC2(CCN(c3ccc(C(=O)N4CCN(CC5CCN(c6cc7c(cc6F)C(=O)N(C6CCC(=O)NC6=O)C7=O)CC5)CC4)nn3)CC2)CN1c1ccc(C#N)c(Cl)c1 (some centres unmarked) in the records?
5.9

Which value of half-life has been reported for C[C@H]1CC2(CCN(c3cnc(C(=O)N4CCN(CC5CCN(c6ccc7c(c6)C(=O)N(C6CCC(=O)NC6=O)C7=O)CC5)CC4)cn3)CC2)CN1c1ccc(C#N)c(Cl)c1 (some centres unmarked) in the records?
2.4

Which value of half-life has been reported for C[C@H]1CC2(CCN(c3ccc(C(=O)N4CCN(C5CCN(c6ccc7c(c6)C(=O)N(C6CCC(=O)NC6=O)C7=O)CC5)CC4)cc3F)CC2)CN1c1ccc(C#N)c(Cl)c1 (some centres unmarked) in the records?
7

Which value of half-life has been reported for C[C@H]1CC2(CCN(c3ccc(C(=O)N4CCN(C5CN(c6ccc7c(c6)C(=O)N(C6CCC(=O)NC6=O)C7)C5)CC4)cc3)CC2)CN1c1ccc(C#N)c(Cl)c1 (some centres unmarked) in the records?
7.6

Which value of half-life has been reported for C[C@H]1CC2(CCN(c3ccc(C(=O)N4CC[C@@H](CN5CCN(c6ccc7c(c6)C(=O)N(C6CCC(=O)NC6=O)C7=O)CC5)C4)cc3)CC2)CN1c1ccc(C#N)c(Cl)c1 (some centres unmarked) in the records?
4.78

Which value of half-life has been reported for C[C@H]1CC2(CCN(c3ccc(C(=O)N4CCC(CN5Cc6cc7c(cc6C5)C(=O)N(C5CCC(=O)NC5=O)C7=O)CC4)nn3)CC2)CN1c1ccc(C#N)c(Cl)c1 (some centres unmarked) in the records?
4.1

Which value of half-life has been reported for C[C@H]1CC2(CCN(c3ccc(C(=O)N4CCN(C5CN(c6cc7c(cc6F)C(=O)N(C6CCC(=O)NC6=O)C7=O)C5)CC4)cc3)CC2)CN1c1ccc(C#N)c(Cl)c1 (some centres unmarked) in the records?
6

Which value of half-life has been reported for C[C@H]1CC2(CCN(c3cnc(C(=O)N4CCN(CC5CN(c6cc7c(cc6F)C(=O)N(C6CCC(=O)NC6=O)C7=O)C5)CC4)cn3)CC2)CN1c1ccc(C#N)c(Cl)c1 (some centres unmarked) in the records?
3.1
